- System Tested: hDLL4-Fc (human, UniProt Q9NR61 27-524, limits assumed)
- Sequence (Q9NR61 27-524 limits assumed): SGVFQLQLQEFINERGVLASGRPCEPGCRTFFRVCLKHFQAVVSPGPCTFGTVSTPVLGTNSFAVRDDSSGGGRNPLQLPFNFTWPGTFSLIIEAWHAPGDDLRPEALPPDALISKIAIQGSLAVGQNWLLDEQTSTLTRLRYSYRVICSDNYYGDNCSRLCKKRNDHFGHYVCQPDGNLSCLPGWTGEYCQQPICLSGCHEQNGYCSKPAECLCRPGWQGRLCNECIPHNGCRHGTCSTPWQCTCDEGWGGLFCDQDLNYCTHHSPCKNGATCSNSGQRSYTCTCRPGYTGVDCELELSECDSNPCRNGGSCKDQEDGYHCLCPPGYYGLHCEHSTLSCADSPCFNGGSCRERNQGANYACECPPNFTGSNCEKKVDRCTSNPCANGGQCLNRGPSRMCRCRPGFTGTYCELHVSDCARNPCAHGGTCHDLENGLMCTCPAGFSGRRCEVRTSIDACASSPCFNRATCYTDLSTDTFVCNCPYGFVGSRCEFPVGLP
- Assay Notes: direct binding ELISA on 1 µg/mL coated hDLL4-Fc, protein input unquantified, detection with anti-poly-histidine-HRP
Observation Type: binding result

Would you please look over these solved cases?
Binder	binding result
78WT (VNAR, Parental non-humanised VNAR 78; also called native (WT) anti-DLL4 VNAR 78) VNAR: TRVDQTPRTATKETGESLTINCVLTDTNYSLYATSWFRKNPGTTDWERMSIGGRYVESVNKGAKSFSLRIKDLTVADSATYICRAVWFPYFISDMWDVYGAGTVLTVN	binds
78-V4 (VNAR, Humanised VNAR (soloMER), poly-histidine tagged, expressed in E. coli; also called soloMER 78 variant V4) VNAR: TRVDQSPSSLSASVGDRVTITCVLTDTNYSLYATSWFRKNPGTTDWERMSIGGRFSGSGSKGAKSFTLTISSLQPEDFATYYCRAVWFPYFISDMWDVYGGGTKVEIK	binds
78-V3 (VNAR, Humanised VNAR (soloMER), poly-histidine tagged, expressed in E. coli; also called soloMER 78 variant V3) VNAR: TRVDQSPSSLSASVGDRVTITCVLTDTNYSLYATSWYQQKPGKTDWERMSIGGRYVESVNKGAKSFTLTISSLQPEDFATYYCRAVWFPYFISDMWDVYGGGTKVEIK	binds
E4 WT (VNAR, also called pre-humanised parental clone E4 WT; Wt DLL4 VNAR) VNAR: ASVNQTPRTATKETGESLTINCVLTDTKYLYSTSWFRKNPGTTDWERMSIGGRYVESVNKGAKSFSLRIKDLTVADSATYICRAWTSFEEQVKDVYGAGTVLTVN	binds

Moving on to the next binder.
Request the reported binding result associated with 78-V5 (VNAR, Humanised VNAR (soloMER), poly-histidine tagged, expressed in E. coli; also called soloMER 78 variant V5) VNAR: TRVDQSPSSLSASVGDRVTITCVLTDTNYSLYATSWYQQKPGKTDWERMSIGGRFSGSGSKGAKSFTLTISSLQPEDFATYYCRAVWFPYFISDMWDVYGGGTKVEIK
binds
